Reported values of GI50 for individual entries
# Test system: BT-549
# Assay notes: NCI tumour cell line growth inhibition, 48 h
Activity calls are given as the source filed them. Rule as the data show it: active = GI50 up to about 1.1 µM and inactive = higher.

Reference set, count: 5
## Task Query (compound): C=C1C(=O)OC2C1CC(O)/C(C)=C\CCC1(C)OC21 (stereo unspecified) ; field requested: GI50
## Result 23 µM (inactive)

## Task Input Cc1nn(-c2ccccc2)c2c1N=C(C(=O)O)CC(c1ccccc1)=N2
## Result > 10 µM (inactive)

## Task Input O=c1oc2ccc(-n3c(=O)c4ccccc4c4ccccc4c3=O)cc2c2ccccc12
## Result 57.1 µM (inactive)

## Task Input CC(C)(Oc1ccc(Cl)cc1)C(=O)N(C(=O)N1CCC(c2ccccc2)CC1)c1ccccc1
## Result 23.4 µM (inactive)

## Task Input Cc1cc2nc(-c3c(F)cccc3F)n(Cc3c(F)cccc3F)c2cc1C
## Result 13.2 µM (inactive)

---
## Task Query (compound): ON(Cc1ccccc1)C(=S)c1ccccc1 ; field requested: GI50
## Result 39.2 µM (inactive)

## Task Input COc1cc(CC(C)=O)cc(OC)c1
## Result 52.5 µM (inactive)

## Task Input CC1(Br)Cc2ccccc2C1=O (stereo unspecified)
## Result 1.7 µM (inactive)

## Task Input C/C(=N\O)c1cccc(Nc2c3ccccc3nc3occc23)c1
## Result 3.29 µM (inactive)

## Task Input CCOC(=O)C1C(=O)CC1(C)C (stereo unspecified)
## Result > 10 µM (inactive)

## Task Input CC(=O)OCC1OC(Oc2cc(C)c(O)cc2C/C=C(\C)CC/C=C(\C)C[C@@H](C=C(C)C)OC(C)=O)C(O)C(OC(C)=O)C1OC(C)=O (stereo partly specified)
## Result 16.8 µM (inactive)

* * *

# System: NCI/ADR-RES
# Assay notes: NCI tumour cell line growth inhibition, 48 h
Activity calls are given as the source filed them. No stated cut-off is given here; in the data, active = GI50 up to about 1.1 µM and inactive = higher.
Measurement type: GI50

Reference set, count: 5
## Task Query (compound): COc1ccc2nc(N/N=C/c3ccc(C)s3)cc(C)c2c1 ; field requested: GI50
## Result 19.7 µM (inactive)

## Task Input S=C(NC/C(Br)=C/Br)Nc1cccc2ccccc12
## Result 19 µM (inactive)

## Task Input CCCCCCCc1cscc1-c1cscc1Br
## Result 90.8 µM (inactive)

## Task Input COc1cc2c(C)cc(O)cc2c2cc(O)c(C)cc12
## Result 13.5 µM (inactive)

## Task Input O=C1CCC(N2C(=O)c3ccccc3C2=O)C(=O)N1 (stereo unspecified) [THALIDOMIDE]
## Result > 100 µM (inactive)

# next compound below
## Task Query (compound): CC1(/C=C/CCSc2ccccc2)CC(=O)C2CC1C2(C)C (stereo unspecified) ; field requested: GI50
## Result 11 µM (inactive)

* * *

Reported values of GI50 for individual entries
# Tested on: 786-0
# Assay notes: NCI tumour cell line growth inhibition, 48 h
Activity calls are given as the source filed them. No stated cut-off is given here; in the data, active = GI50 up to about 1.1 µM and inactive = higher.

## Task Query (compound): N#Cc1nsnc1-c1nc(-c2nsnc2C#N)nc(-c2nsnc2C#N)n1 ; field requested: GI50
## Result 61.9 µM (inactive)

## Task Input COc1ccc(NC(=O)C(=O)NNC(=O)c2sc(NNC(C)=O)nc2C)c([N+](=O)[O-])c1
## Result > 100 µM (inactive)

## Task Input CC(C)CCNc1ncnc2[nH]ncc12
## Result > 100 µM (inactive)

## Task Input CC(=O)O[C@@H]1C[C@@]23C[C@@]24CC[C@H](OC2OCC(O)C(O)C2O)C(C)(C)[C@@H]4CC=C3[C@]2(C)C[C@@H]3OC4(C[C@@H](C)[C@@H]3[C@@]12C)OC(O)[C@@]1(C)O[C@@H]41 (some centres undefined)
## Result 25.2 µM (inactive)

This collection of values is drawn from ChEMBL document CHEMBL1201862.
